- ASSAY_SYSTEM: MAST2, Q6P0Q8
- Sequence (Q6P0Q8 1099-1202): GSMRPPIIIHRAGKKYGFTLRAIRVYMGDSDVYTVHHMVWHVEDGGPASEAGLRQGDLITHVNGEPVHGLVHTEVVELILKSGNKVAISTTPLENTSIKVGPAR
- EXPERIMENT_DESCRIPTION: holdup assay
- Set-up: key: below the threshold = too weak to quantify, mostly under pKd 3.1 to 4
- ASSAY_CONTEXT: plain residues with an end cap or a label only (N-terminal biotin on a linker: ttds)
pKd overview
MEASURED_ATTRIBUTE: pKd

binder="GARVSKETPL [MAPK12, P53778]" recorded_number=4.78
binder="QRPYRRESEI [KCNJ12, Q14500]" recorded_number=4.42
binder="SHSSKGETAV [FZD7, O75084]" recorded_number=5.09
binder="SSIDLWETAL [SLC15A5, A6NIM6]" recorded_number=5.44
binder="FVETQHQTQV [FAT3, Q8TDW7]" recorded_number=5.39
binder="DLDEEEDTHL [PODXL, O00592]" recorded_number=5.31
binder="PSRDRKETSI [RALBP1, Q15311]" recorded_number=4.88
binder="PPRQRSETQV [HPV82-E6, Q9IR59]" recorded_number=5.18
binder="SRSRRRETAL [HPV33-E6, P06427]" recorded_number=5.37
binder="GRLLGLETNV [ARHGEF26, Q96DR7]" recorded_number=5.35
binder="KLVIKTETTV [RASSF6, Q6ZTQ3]" recorded_number=5.13
